- Test system: johnsongrass (Sorghum halepense)
- Method summary: Test C
- Type: in vivo
- Assay setup: PREEMERGENCE, Rate 70 g/ha
Measured property: Plant response rating, Johnsongrass
Respond numerically, and do not add a unit to the figure.

Please review the following examples before continuing.
Compound: Cc1cnc(-c2ccc(C(F)(F)F)cc2)nc1Cn1ccc(C(F)(F)F)n1
Target entity: johnsongrass (Sorghum halepense)
Plant response rating, Johnsongrass: 85

Compound: Cc1cnc(-n2cnc(C(F)(F)F)n2)nc1Cc1cccc(C(F)(F)F)c1
Target entity: johnsongrass (Sorghum halepense)
Plant response rating, Johnsongrass: 30

Compound: Cc1cnc(-c2ccc(C(F)(F)F)cc2)nc1C(Cl)c1cccc(C(F)(F)F)c1 (racemic)
Target entity: johnsongrass (Sorghum halepense)
Plant response rating, Johnsongrass: 0

Compound: Cc1cnc(-c2ccc(C(F)(F)F)cc2)nc1Cc1cccc(C(F)(F)F)c1
Target entity: johnsongrass (Sorghum halepense)
Plant response rating, Johnsongrass: 95

Compound: COc1cnc(-c2ccc(C(F)(F)F)cc2)nc1Cc1cccc(C(F)(F)F)c1
Target entity: johnsongrass (Sorghum halepense)
Plant response rating, Johnsongrass: 20

Compound: Cc1cnc(-n2ccc(C(F)(F)F)n2)nc1C(=O)c1cccc(OC(F)(F)F)c1
Target entity: johnsongrass (Sorghum halepense)
Plant response rating, Johnsongrass: 5

Now for a further compound.
Query: # input compound: Cc1cnc(-n2ccc(C(F)(F)F)n2)nc1Cc1cccc(OC(F)(F)F)c1 ; wanted: its Plant response rating, Johnsongrass
Response: 70
